Below, each entry is listed alongside its reported TGI.
# Tested on: HL-60(TB) leukemia
# assay-remarks: NCI tumour cell line growth inhibition, 48 h
Return type: number; implicit unit µM.

Reference set, count: 4
compound="O=C1C2C(C(=O)N1c1ccccc1)C1c3ccccc3C2C2C(=O)N(c3ccccc3)C(=O)C21 (configuration not stated)" target_of_assay="HL-60(TB) leukemia" recorded_metric=TGI assay_value=44.9
compound=CCOC(=O)N1C/C(=C\c2ccccc2)C(=O)/C(=C/c2ccccc2)C1 target_of_assay="HL-60(TB) leukemia" recorded_metric=TGI assay_value=4.3
compound=CCCCc1ccc(Nc2ncc3ncn(COCCO)c3n2)cc1 target_of_assay="HL-60(TB) leukemia" recorded_metric=TGI assay_value=50
compound=NNC(=O)Nc1nc2ccc(NN)cc2[nH]1 target_of_assay="HL-60(TB) leukemia" recorded_metric=TGI assay_value=32.4

Any idea what TGI was measured for `C#CC(O)(c1nc2ccccc2s1)c1nc2ccccc2s1` ?
46.1

Then COC(=O)c1ccccc1C1CN=NC12Cc1c(ccc3c1CCC3)C2=O (configuration not stated) ?
59.3

* * *

# System: BT-549 breast
# assay-remarks: NCI tumour cell line growth inhibition, 48 h; in the data active = GI50 below about 0.43 µM; inactive = the rest
Please reply with one of these outcomes: active, inactive

Field: example entries. Status: answers known.
compound=C/C(=C\c1ccn(-c2ccccc2N)n1)[C@@H]1C[C@@H]2O[C@]2(C)CCC[C@H](C)[C@H](O)[C@@H](C)C(=O)C(C)(C)[C@@H](O)CC(=O)O1 class_name=active
compound="CC1=CC2C(C(O)CC3(C)C2CC(C)C32OCOC23COCO3)C2(C)C/C(=C/O)C(=O)C=C12 (stereo not given)" class_name=inactive
compound=COc1ccc2c(c1)nc(NNC(=O)c1cnccn1)c1cccn12 class_name=inactive
compound=CCn1c(=O)c2nc(SC)sc2n(-c2ccc(C)cc2)c1=O class_name=inactive

Record request — test call for `C=CC(=O)N1CCC(c2ccc(C(N)=O)c(-c3ccc(Oc4ccccc4)cc3)n2)CC1`
inactive

Then `CO/N=C(\COc1ccc2c(=O)c3ccccc3oc2c1)c1ccccc1` ?
inactive

* * *

# Test system: NCI-H460 lung
Below, each entry is listed alongside its reported GI50.

smiles_record=Cc1ccc(/C=C/c2c(C(=O)/C=C/c3ccccc3)c(C)nc3ccccc23)cc1 assay_value="1370 nM"

Any idea what GI50 was measured for `CCC[CH2][Sn]([CH2]CCC)([O]C(=O)c1cc(OC)c(OC)cc1OC)[O][Sn]([CH2]CCC)([CH2]CCC)[O]C(=O)c1cc(OC)c(OC)cc1OC` ?
1300 nM

Then `COc1ccc(C(=O)Cn2c(C(=O)c3ccccc3)nc3ccccc32)cc1` ?
3390 nM

Then `COc1cc2c(cc1OC)-c1ncc3c(OC)ccc(OC)c3c1C2` ?
20900 nM

Then `COc1ccccc1/C=C1\COc2ccc(-c3ccccc3)cc2C1=O` ?
2100 nM

Then `[2H]C([2H])([2H])NC(=O)c1nnc(NC(=O)C2CC2)cc1Nc1cccc(-c2ncn(C)n2)c1OC` ?
> 100000 nM

Then `c1ccc(-c2nn3c(c2-c2ccnc4cc(OCCN5CCOCC5)ccc24)CCC3)nc1` ?
33600 nM

Then `CN(C)C(=O)Nc1nc2cc(Cl)c(Cl)cc2[nH]1` ?
440 nM

Then `C#C[C@]1(O)CC[C@H]2[C@@H]3CC=C4c5sc(Nc6cc(F)ccc6F)nc5CC[C@]4(C)[C@H]3CC[C@@]21C` ?
1950 nM
